Biological target: ALK tyrosine kinase receptor (Homo sapiens, UniProt Q9UM73)
Sequence (Q9UM73 19-1620 limits assumed): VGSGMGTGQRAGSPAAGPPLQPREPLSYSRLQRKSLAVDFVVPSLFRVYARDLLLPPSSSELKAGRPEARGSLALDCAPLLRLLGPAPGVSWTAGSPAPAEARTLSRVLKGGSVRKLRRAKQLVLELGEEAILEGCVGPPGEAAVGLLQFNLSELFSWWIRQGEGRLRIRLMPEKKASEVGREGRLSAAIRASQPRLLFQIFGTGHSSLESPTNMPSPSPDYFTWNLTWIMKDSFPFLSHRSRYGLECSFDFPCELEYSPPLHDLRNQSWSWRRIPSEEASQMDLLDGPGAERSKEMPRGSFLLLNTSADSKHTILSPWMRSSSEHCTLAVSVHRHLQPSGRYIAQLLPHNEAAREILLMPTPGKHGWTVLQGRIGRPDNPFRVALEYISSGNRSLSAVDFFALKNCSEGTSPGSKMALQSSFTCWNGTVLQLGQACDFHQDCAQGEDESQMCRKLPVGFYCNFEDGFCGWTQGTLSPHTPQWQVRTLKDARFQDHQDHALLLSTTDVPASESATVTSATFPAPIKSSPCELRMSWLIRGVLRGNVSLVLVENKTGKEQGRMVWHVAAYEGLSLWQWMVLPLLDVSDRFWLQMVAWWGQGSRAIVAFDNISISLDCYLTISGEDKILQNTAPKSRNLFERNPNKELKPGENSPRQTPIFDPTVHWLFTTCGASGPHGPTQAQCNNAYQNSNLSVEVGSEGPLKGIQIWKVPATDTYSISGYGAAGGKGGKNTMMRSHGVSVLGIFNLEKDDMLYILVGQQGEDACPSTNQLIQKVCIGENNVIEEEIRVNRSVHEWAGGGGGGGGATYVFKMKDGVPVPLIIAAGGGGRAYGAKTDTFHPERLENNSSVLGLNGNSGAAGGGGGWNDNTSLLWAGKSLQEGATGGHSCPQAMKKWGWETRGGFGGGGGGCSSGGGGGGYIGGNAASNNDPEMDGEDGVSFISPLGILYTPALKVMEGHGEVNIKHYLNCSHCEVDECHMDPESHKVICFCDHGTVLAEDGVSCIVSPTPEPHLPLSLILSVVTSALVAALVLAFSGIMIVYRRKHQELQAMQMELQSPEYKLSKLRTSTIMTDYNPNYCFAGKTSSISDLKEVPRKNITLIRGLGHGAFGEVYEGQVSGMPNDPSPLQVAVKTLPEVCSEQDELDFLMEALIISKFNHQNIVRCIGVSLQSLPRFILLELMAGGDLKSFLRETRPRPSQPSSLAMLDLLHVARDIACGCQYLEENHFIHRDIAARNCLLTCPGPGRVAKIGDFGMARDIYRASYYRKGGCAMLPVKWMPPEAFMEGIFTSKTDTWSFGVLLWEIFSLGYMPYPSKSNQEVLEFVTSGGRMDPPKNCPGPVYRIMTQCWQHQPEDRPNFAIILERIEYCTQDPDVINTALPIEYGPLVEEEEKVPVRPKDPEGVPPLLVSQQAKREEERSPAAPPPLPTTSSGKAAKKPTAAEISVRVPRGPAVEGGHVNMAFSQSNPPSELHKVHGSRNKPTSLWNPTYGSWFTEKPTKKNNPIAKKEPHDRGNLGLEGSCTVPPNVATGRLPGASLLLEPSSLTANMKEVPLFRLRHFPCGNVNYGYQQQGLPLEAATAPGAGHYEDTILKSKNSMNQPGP
Assay: Inhibition of ALK (unknown origin) at 10 nM preincubated for 10 mins followed by addition of substrate and ATP for 25 mins by caliper EZ reader method
Details: time 35.0 min
quantity name: inhibition (%)

> print(dat)
                           structure.string                               target.desc  test.value
1  Cc1ccc(Nc2nc(Nc3ccc(NC(=O)CCCCCCC(=O)NO)cc3)ncc2Cl)cc1  ALK tyrosine kinase receptor (Homo sapiens, UniProt Q9UM73)         7.2
2  CC(C)S(=O)(=O)c1ccccc1Nc1nc(Nc2ccc(C(=O)NCCCC(=O)NO)cc2)ncc1Cl  ALK tyrosine kinase receptor (Homo sapiens, UniProt Q9UM73)        91.2
3  Cc1cc(C(=O)NCCCCCC(=O)NO)ccc1Nc1ncc(Cl)c(Nc2ccccc2S(=O)(=O)C(C)C)n1  ALK tyrosine kinase receptor (Homo sapiens, UniProt Q9UM73)        93.1

I. CC(C)S(=O)(=O)c1ccccc1Nc1nc(Nc2cccc(C(=O)NCCCCC(=O)NO)c2)ncc1Cl
II. COc1cccc(Nc2nc(Nc3ccc(NC(=O)CCCCCCC(=O)NO)cc3)ncc2Cl)c1
Looking at I and II , which one comes out lower in inhibition terms? Let me know the label of the one you choose. II

I. CC(C)S(=O)(=O)c1ccccc1Nc1nc(Nc2ccc(NC(=O)CCCCCCC(=O)NO)cc2)ncc1F
II. Cc1cccc(Nc2nc(Nc3ccc(NC(=O)CCCCCCC(=O)NO)cc3)ncc2Cl)c1
III. O=C(CCCCCCC(=O)Nc1ccc(Nc2ncc(Cl)c(Nc3ccccc3Cl)n2)cc1)NO
IV. O=C(CCCCCCC(=O)Nc1ccc(Nc2ncc(Cl)c(Nc3ccccc3)n2)cc1)NO
// sort entries: inhibition, high to low Response field: labels, in requested order. I, IV, III, II
(I: 66.3%, IV: 4.9%, III: 3.1%, II: 0.2%)

A. CC(C)S(=O)(=O)c1ccccc1Nc1nc(Nc2ccc(NC(=O)CCCCCC(=O)NO)cc2)ncc1Cl
B. COc1cccc(Nc2nc(Nc3ccc(NC(=O)CCCCCCC(=O)NO)cc3)ncc2C(F)(F)F)c1
Looking at A and B , which one comes out lower in inhibition terms? Let me know the label of the one you choose. B
(B: 4.9%, A: 86.5%)

a. CC(C)S(=O)(=O)c1ccccc1Nc1nc(Nc2ccc(NC(=O)CCCCCCC(=O)NO)cc2)ncc1Cl
b. Cc1ccccc1Nc1nc(Nc2ccc(NC(=O)CCCCCCC(=O)NO)cc2)ncc1Cl
Looking at a and b , which one comes out lower in inhibition terms? Let me know the label of the one you choose. b
(b: 1.2%, a: 80.8%)

---

Reported IC50 for target or system ALK tyrosine kinase receptor (Homo sapiens, UniProt Q9UM73, G1202R), by entry.
quantity name: IC50 (nM)

a. CC(C)S(=O)(=O)c1ccccc1Nc1nc(Nc2ccc(C(=O)NCCCCCCC(=O)NO)cc2)ncc1Cl
b. CC(C)S(=O)(=O)c1ccccc1Nc1nc(Nc2ccc(NC(=O)CCCCCCC(=O)NO)cc2)ncc1Cl
Lab note: check whether a or b shows the higher recorded IC50. Let me know the label of the one you choose. a
(a: 1 nM, b: 0.4 nM)

---

Tested on: A549
Assay: cells
Type: functional, cell-based
Settings: Homo sapiens, A549, 72 h
Description: Antiproliferative activity against human A549 cells assessed as inhibition of cell proliferation measured after 72 hrs by CCK8 assay
quantity name: IC50 (nM)

I. CC(C)S(=O)(=O)c1ccccc1Nc1nc(Nc2ccc(C(=O)NCCCCCCC(=O)NO)cc2)ncc1Cl
II. CC(C)S(=O)(=O)c1ccccc1Nc1nc(Nc2ccc(NC(=O)CCCCCCC(=O)NO)cc2)ncc1Cl
Looking at I and II , which one comes out lower in IC50 terms? Let me know the label of the one you choose. II
(II: 460 nM, I: 3420 nM)
